// reported pIC50 per item
Target: Cytochrome P450 1A2 (Homo sapiens)
Sequence (P05177 whole entry): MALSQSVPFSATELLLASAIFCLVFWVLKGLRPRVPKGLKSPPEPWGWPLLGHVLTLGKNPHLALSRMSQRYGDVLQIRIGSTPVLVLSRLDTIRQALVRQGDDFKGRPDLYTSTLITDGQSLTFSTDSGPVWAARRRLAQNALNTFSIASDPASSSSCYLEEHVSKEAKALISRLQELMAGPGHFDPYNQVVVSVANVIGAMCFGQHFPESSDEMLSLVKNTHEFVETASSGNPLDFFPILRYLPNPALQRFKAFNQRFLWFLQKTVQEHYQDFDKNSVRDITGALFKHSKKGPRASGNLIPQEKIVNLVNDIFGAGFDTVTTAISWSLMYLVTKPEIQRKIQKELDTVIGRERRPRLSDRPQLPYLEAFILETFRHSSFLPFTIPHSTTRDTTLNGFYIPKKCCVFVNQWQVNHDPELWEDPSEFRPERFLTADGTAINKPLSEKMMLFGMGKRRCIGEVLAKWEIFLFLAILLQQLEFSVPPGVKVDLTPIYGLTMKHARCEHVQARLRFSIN
pIC50: −log10 of the molar value.
READOUT NAME: pIC50

>>> assay_result("CC#Cc1ccc2c(ccc3ccccc32)c1")
7.22
>>> assay_result("c1cc2ccc3cccc4ccc(c1)c2c34")
8.15

###

target: 25-hydroxyvitamin D-1 alpha hydroxylase, mitochondrial (Homo sapiens); experiment: Inhibition of CYP27B1
Sequence (O15528 whole entry): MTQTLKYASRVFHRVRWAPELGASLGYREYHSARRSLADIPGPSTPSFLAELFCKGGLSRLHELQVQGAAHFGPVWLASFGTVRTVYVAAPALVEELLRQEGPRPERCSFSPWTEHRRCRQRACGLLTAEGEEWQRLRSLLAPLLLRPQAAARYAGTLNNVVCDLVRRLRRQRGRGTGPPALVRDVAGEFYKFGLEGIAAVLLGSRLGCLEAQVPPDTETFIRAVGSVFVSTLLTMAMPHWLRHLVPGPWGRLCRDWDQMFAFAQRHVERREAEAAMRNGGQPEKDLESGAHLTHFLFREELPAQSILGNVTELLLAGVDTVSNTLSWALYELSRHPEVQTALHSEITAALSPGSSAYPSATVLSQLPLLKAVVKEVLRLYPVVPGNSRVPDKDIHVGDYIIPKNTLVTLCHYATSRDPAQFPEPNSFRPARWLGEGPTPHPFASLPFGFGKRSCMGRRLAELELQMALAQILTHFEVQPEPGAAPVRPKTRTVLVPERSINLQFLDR
READOUT NAME: IC50 (nM)

>>> assay_result("C=C1/C(=C\\C=C2/CCC[C@]3(C)C([C@H](C)CC[S+](=N)([O-])c4ccccc4)=CCC23)C[C@@H](O)C[C@@H]1O (stereo partly specified)")
554

###

Target: UniProt P04798
Sequence (P04798 whole entry): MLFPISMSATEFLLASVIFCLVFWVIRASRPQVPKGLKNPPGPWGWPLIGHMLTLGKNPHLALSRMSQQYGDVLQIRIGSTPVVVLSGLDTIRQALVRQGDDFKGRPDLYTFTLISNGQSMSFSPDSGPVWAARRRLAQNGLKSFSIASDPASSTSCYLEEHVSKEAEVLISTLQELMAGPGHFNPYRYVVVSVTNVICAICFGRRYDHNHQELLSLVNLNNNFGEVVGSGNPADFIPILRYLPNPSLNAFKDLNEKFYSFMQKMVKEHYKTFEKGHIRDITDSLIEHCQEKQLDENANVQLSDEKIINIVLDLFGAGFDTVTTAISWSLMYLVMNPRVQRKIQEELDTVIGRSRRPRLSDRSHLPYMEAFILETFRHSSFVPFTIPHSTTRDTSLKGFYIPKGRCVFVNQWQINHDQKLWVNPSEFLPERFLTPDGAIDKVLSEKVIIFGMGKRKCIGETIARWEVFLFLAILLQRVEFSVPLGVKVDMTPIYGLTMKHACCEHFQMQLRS
pIC50: −log10 of the molar value.
READOUT NAME: pIC50

>>> assay_result("c1cc2ccc3cccc4ccc(c1)c2c34")
7.39
>>> assay_result("COc1cc(/C=C\\c2cccs2)cc(OC)c1")
7.21
>>> assay_result("CC#Cc1ccc2c(ccc3ccccc32)c1")
6.82

###

Biological target: 1,25-dihydroxyvitamin D(3) 24-hydroxylase, mitochondrial (Homo sapiens, UniProt Q07973)
Sequence (Q07973 whole entry): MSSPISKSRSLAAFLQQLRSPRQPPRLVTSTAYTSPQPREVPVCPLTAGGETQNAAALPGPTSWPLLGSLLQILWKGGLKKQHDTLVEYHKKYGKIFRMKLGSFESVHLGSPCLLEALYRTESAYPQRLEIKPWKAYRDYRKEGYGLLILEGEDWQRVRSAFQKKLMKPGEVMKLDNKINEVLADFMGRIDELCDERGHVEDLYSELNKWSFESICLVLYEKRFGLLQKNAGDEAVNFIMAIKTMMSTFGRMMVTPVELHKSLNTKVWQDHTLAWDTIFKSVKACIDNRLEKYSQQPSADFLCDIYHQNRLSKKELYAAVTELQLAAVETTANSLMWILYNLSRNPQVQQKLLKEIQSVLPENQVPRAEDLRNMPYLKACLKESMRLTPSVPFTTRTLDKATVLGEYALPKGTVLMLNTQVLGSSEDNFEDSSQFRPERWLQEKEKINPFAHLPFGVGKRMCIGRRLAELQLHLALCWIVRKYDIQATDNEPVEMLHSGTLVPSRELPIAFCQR
Experiment: Inhibition of CYP24
READOUT NAME: IC50 (nM)

>>> assay_result("C=C1/C(=C\\C=C2/CCC[C@]3(C)C([C@H](C)CC[S+](=N)([O-])c4ccccc4)=CCC23)C[C@@H](O)C[C@@H]1O (stereo partly specified)")
7.4

Data provenance: ChEMBL document CHEMBL1140636
